Reported IC50 by item:
# Test system: P388
# Protocol details: Cytotoxicity against mouse P388 cells after 48 hrs by MTT assay
# Format: functional, cell-based
# Experimental setup: P388, 48 h

query: Answer with reported IC50 of `CC(C)C[C@@H](C(=O)Nc1ccc(S(=O)(=O)c2ccc(N)cc2)cc1)N1C(=O)c2cccc3c(NCCN(C)C)ccc(c23)C1=O`
result: > 50 µM

query: Answer with reported IC50 of `CC(C)C[C@@H](C(=O)Nc1ccc(S(N)(=O)=O)cc1)N1C(=O)c2cccc3c(NCCN(C)C)ccc(c23)C1=O`
result: 7.23 µM

query: Answer with reported IC50 of `COc1cc(-c2ccc(NC(=O)[C@H](CC(C)C)N3C(=O)c4cccc5c(NCCN(C)C)ccc(c45)C3=O)c(OC)c2)ccc1N`
result: 7.67 µM
